Measured % binding (parent = 100) values are reported for all entries that follow.
Assayed Target: T1, human C5 (human, UniProt P01031 19-673; P01031 678-1676, Beta and alpha chains are disulfide-linked and the protein is glycosylated.)
T1 construct: Either in-house recombinant C5 or plasma derived C5 (CALBIOCHEM) was used; also called recombinant human C5; plasma derived human C5
Test Protocol: Biacore, captured antibody, pH 7.4, 37 C;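 note: biacore binding response of anti-C5 antibody light chain variants captured on chip with human C5 injected, ACES running buffer containing 1.2 mM CaCl₂, parent light chain antibody set to 100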
Please answer using the number first and the unit second.

CFP0021 21L 32N (antibody, V domains shown) VH: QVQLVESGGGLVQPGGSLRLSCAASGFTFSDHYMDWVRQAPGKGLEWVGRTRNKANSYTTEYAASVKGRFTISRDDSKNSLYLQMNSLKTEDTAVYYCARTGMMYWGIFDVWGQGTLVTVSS VL: DIQMTQSPSSLSASVGDRVTITCRASQSIEDNLAWYQQKPGKAPKLLIYHASTLQSGVPSRFSGSGSGTDFTLTISSLQPEDFATYYCQQHDSYPLTFGQGTKVEIK = 17.5%

# input binder: CFP0018 18L 30P (antibody, V domains shown) VH: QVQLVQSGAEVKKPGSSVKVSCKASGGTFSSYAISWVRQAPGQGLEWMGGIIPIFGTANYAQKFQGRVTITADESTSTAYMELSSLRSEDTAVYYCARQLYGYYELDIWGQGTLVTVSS VL: DIQMTQSPSSLSASVGDRVTITCRASQSIPDDLAWYQQKPGKAPKLLIYEASSLQSGVPSRFSGSGSGTDFTLTISSLQPEDFATYYCQQYNSYPLTFGQGTKVEIK ; wanted: its % binding (parent = 100)
111%
